Tested on: Mutarda arvensis
Assay: Herbicidal activity against Sinapis arvensis after 3 weeks by post-emergence greenhouse test
Type: functional
Design: concentration or dose not given beside the values
Measured Activity accompanies every entry in the list below.
Value expressed in %; do not type the unit.

Look over these answered cases.
compound: CCC[S+]([O-])c1nc2ccccn2c1S(=O)(=O)NC(=O)Nc1nc(OC)cc(OC)n1 (stereo not drawn)
Activity, %: 51
//
compound: CCS(=O)(=O)c1nc2ccccn2c1S(=O)(=O)NC(=O)Nc1nc(C)cc(C)n1
Activity, %: 76

Note: attention shifts to another entry.
GET /value?item= CCCSc1nc2ccccn2c1S(=O)(=O)NC(=O)Nc1nc(OC)cc(OC)n1 &field=Activity returns 51
